Hey, just so you know, these numbers are from the supplement of paper PMC5908809.

- Tested on: IMC-1 (IL-2 20 ng/mL);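 also: normalised to DMSO-only wells as negative and benzethonium chloride as positive control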
- Assay Details: percent inhibition of viability; higher = more inhibition
- Measurement Conditions: 72 h; 10 nM
Readout Name: percent inhibition of viability
Put your answer as a value accompanied by its unit after it.

Record excerpt, results attached:
>>> recorded_measurement("CC(C)C(=O)Nc1ccc([N+](=O)[O-])c(C(F)(F)F)c1 [Flutamide] (max concentration tested 10000 nM)")
"-1.46%"
>>> recorded_measurement("O=C(CCBr)N1CCN(C(=O)CCBr)CC1 [Pipobroman] (max concentration tested 10000 nM)")
"-8.46%"

# input I am curious: what percent inhibition of viability value has been reported for Cc1c(C(=O)Nc2ccc(N3C[C@@H](C)O[C@@H](C)C3)nc2)cccc1-c1ccc(OC(F)(F)F)cc1 [Sonidegib] (max concentration tested 10000 nM) ?
# output 0.95%
